- Tested on: 171881-019-R-J1-PDC complex spheroid growth, % test/control
- EXPERIMENT: Anticancer human tumor 171881-019-R-J1-PDC patient-derived invasive breast carcinoma cell line growth inhibition [Asc]
- DETAILS: curve of first compound; second compound 0.316 µM
MEASURED METRIC: IC50

Below: 4 molecules and their reported IC50.
IC50 for CNC(C)C(=O)NC1CN(S(=O)(=O)c2cccc(S(=O)(=O)N3CCC4CCC(C(=O)NC(c5ccccc5)c5ccccc5)N4C(=O)C(NC(=O)C(C)NC)C3)c2)CCC2CCC(C(=O)NC(c3ccccc3)c3ccccc3)N2C1=O (stereo not drawn) + Cc1c(S(C)(=O)=O)c(-c2cc(F)cc(N3CCN(c4ccc(NS(=O)(=O)c5ccc(NC(CCN6CCC(C(=O)OCCCP(=O)(O)O)CC6)CSc6ccccc6)c(S(=O)(=O)C(F)(F)F)c5)cc4)CC3)c2)c(-c2ccc(Cl)cc2)n1C(C)C is > 1000 nM

IC50 for O=C(c1ccc(F)c(F)c1Nc1ccc(I)cc1F)N1CC(O)([C@@H]2CCCCN2)C1 + Cc1c(S(C)(=O)=O)c(-c2cc(F)cc(N3CCN(c4ccc(NS(=O)(=O)c5ccc(NC(CCN6CCC(C(=O)OCCCP(=O)(O)O)CC6)CSc6ccccc6)c(S(=O)(=O)C(F)(F)F)c5)cc4)CC3)c2)c(-c2ccc(Cl)cc2)n1C(C)C is 164 nM

IC50 for Cc1nc(N2CCC3(CC2)COC(C)C3N)c(CO)nc1Sc1ccnc(N)c1Cl (stereo not drawn) + Cc1c(S(C)(=O)=O)c(-c2cc(F)cc(N3CCN(c4ccc(NS(=O)(=O)c5ccc(NC(CCN6CCC(C(=O)OCCCP(=O)(O)O)CC6)CSc6ccccc6)c(S(=O)(=O)C(F)(F)F)c5)cc4)CC3)c2)c(-c2ccc(Cl)cc2)n1C(C)C is > 3000 nM

IC50 for CCN1C(C(=O)NC23CCC(C(=O)O)(CC2)CC3)C(c2cccc(Cl)c2F)C2(C(=O)Nc3cc(Cl)ccc32)C12CCCCC2 (stereo not drawn) + CNC(C)C(=O)NC1CN(S(=O)(=O)c2cccc(S(=O)(=O)N3CCC4CCC(C(=O)NC(c5ccccc5)c5ccccc5)N4C(=O)C(NC(=O)C(C)NC)C3)c2)CCC2CCC(C(=O)NC(c3ccccc3)c3ccccc3)N2C1=O is > 3000 nM

// for each molecule in input: emit IC50
1. Cn1ncnc1[C@H]1c2n[nH]c(=O)c3cc(F)cc(c23)N[C@@H]1c1ccc(F)cc1 + CNC(C)C(=O)NC1CN(S(=O)(=O)c2cccc(S(=O)(=O)N3CCC4CCC(C(=O)NC(c5ccccc5)c5ccccc5)N4C(=O)C(NC(=O)C(C)NC)C3)c2)CCC2CCC(C(=O)NC(c3ccccc3)c3ccccc3)N2C1=O
2. Cc1nc(N2CCC3(CC2)COC(C)C3N)c(CO)nc1Sc1ccnc(N)c1Cl (stereo not drawn) + CNC(C)C(=O)NC1CN(S(=O)(=O)c2cccc(S(=O)(=O)N3CCC4CCC(C(=O)NC(c5ccccc5)c5ccccc5)N4C(=O)C(NC(=O)C(C)NC)C3)c2)CCC2CCC(C(=O)NC(c3ccccc3)c3ccccc3)N2C1=O

1: > 100 nM; 2: > 3000 nM

// for each molecule in input: emit IC50
1. O=C(c1ccc(F)c(F)c1Nc1ccc(I)cc1F)N1CC(O)([C@@H]2CCCCN2)C1 + CNC(C)C(=O)NC1CN(S(=O)(=O)c2cccc(S(=O)(=O)N3CCC4CCC(C(=O)NC(c5ccccc5)c5ccccc5)N4C(=O)C(NC(=O)C(C)NC)C3)c2)CCC2CCC(C(=O)NC(c3ccccc3)c3ccccc3)N2C1=O
2. NC1CCC(NC2CC2c2ccccc2)CC1 (stereo not drawn) + CNC(C)C(=O)NC1CN(S(=O)(=O)c2cccc(S(=O)(=O)N3CCC4CCC(C(=O)NC(c5ccccc5)c5ccccc5)N4C(=O)C(NC(=O)C(C)NC)C3)c2)CCC2CCC(C(=O)NC(c3ccccc3)c3ccccc3)N2C1=O

1: 519 nM; 2: > 100 nM
